Parameter: hemolysis. Scope: all listed entries.
Test: Haemolytic activity in human erythrocytes at 0.1 to 10 ug/ml relative to control
Type: ADME, cell-based, Erythrocyte
Conditions: read-out: Activity
Observable: hemolysis

INSERT INTO measurements (smiles_repr, result) VALUES
  ('O=C(O)c1ccccc1NCc1ccc(Sc2ccc(Cl)c(Cl)c2)c([N+](=O)[O-])c1', '< 10%'),
  ('O=C(O)c1ccccc1C(=O)c1ccc(Sc2ccc(Cl)c(Cl)c2)c([N+](=O)[O-])c1', '< 10%'),
  ('O=C(O)c1ccc(Cl)c(NCc2ccc(Sc3ccc(Cl)c(Cl)c3)c([N+](=O)[O-])c2)c1', '< 10%');
